- Tgt: UniProt Q9P1W9
- Assay type: biochemical
- Condition: PIM2; 1 μM compound concentration
Assign labels as follows, please: rule met for POC (Percent of control) PIM2 below 100 POC; rule not met for POC (Percent of control) PIM2 equal to or exceeding 100 POC.

COc1ccc(Nc2ncc(Cc3ccc(S(C)(=O)=O)cc3)cc2-c2nc(C)nc3[nH]cnc23)cn1 [Example 103]    rule met
COc1ccc(Nc2ncccc2-c2ncnc3[nH]cnc23)cn1 [Example 20]    rule not met
Cc1nc(N)cc(-c2cccnc2Nc2cccc3[nH]ncc23)n1 [Example 27]    rule not met

Prompt: Problem: For the molecule Cc1cnc(Nc2cccc3[nH]ncc23)c(-c2nc(C)nc(N)n2)c1 [Example 47] , is POC (Percent of control) PIM2 under 100 POC?
Response: rule not met

Prompt: Lookup COc1ccc(Nc2ncc(CN3CCN(C(C)=O)CC3)cc2-c2nc(C)nc3[nH]cnc23)cn1 [Example 89]
Response: rule met

Numbers sourced from patent US8772480B2.
